Origin of the recorded values: ChEMBL document CHEMBL3228031

- Assay Name: Aqueous solubility of the compound at pH 7
- Type: physicochemical
- Test Context: aqueous, read-out: solubility
Test Readout: solubility (µg/mL)

>  <Mol Smiles>
CCC(=O)O[C@H]1[C@H](OC(=O)CC)[C@@H](CO)O[C@H]1n1cnc2c(N)ncnc21

>  <Measured Result>
4500

$$$$

a. CC(=O)O[C@H]1[C@H](OC(C)=O)[C@@H](CO)O[C@H]1n1cnc2c(N)ncnc21
b. CC(C)C(=O)O[C@H]1[C@H](OC(=O)C(C)C)[C@@H](CO)O[C@H]1n1cnc2c(N)ncnc21
c. CCC(=O)OC[C@H]1O[C@@H](n2cnc3c(N)ncnc32)[C@@H](O)[C@@H]1OC(=O)CC
d. CC(C)C(=O)OC[C@H]1O[C@@H](n2cnc3c(N)ncnc32)[C@@H](O)[C@@H]1OC(=O)C(C)C
e. CC(=O)OC[C@H]1O[C@@H](n2cnc3c(N)ncnc32)[C@@H](O)[C@@H]1OC(C)=O
### Prompt Put the entries in order of solubility, starting with the largest number. API: response body holds the labels in the requested order.
### Response a, e, c, b, d
